target-desc: KRAS G13D antigen (G13D-RT6, SEQ ID NO: 20) loaded on Lovo-DPA0301:DPB0501 cells (human)
assay-method-text: cell-based or functional assay
TCR Mut RLU/WT RLU: recorded values

binder: B8.2.4 TCR mutant β95Q-W (TCR, V domains shown) V domain 1: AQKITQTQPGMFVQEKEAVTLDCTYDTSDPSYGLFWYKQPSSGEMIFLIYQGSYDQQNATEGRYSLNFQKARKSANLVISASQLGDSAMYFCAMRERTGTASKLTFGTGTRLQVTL V domain 2: DVKVTQSSRYLVKRTGEKVFLECVQDMDHENMFWYRQDPGLGLRLIYFSYDVKMKEKGDIPEGYSVSREKKERFSLILESASTNQTSMYLCASSWTVPPQHFGDGTRLSILE
display-unit: ratio
TCR Mut RLU/WT RLU: 0.88

binder: B8.2.4 TCR mutant β96T-F (TCR, V domains shown) V domain 1: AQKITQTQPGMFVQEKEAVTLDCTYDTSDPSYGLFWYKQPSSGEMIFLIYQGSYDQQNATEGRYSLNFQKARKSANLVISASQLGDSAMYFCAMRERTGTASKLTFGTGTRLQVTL V domain 2: DVKVTQSSRYLVKRTGEKVFLECVQDMDHENMFWYRQDPGLGLRLIYFSYDVKMKEKGDIPEGYSVSREKKERFSLILESASTNQTSMYLCASSQFVPPQHFGDGTRLSILE
display-unit: ratio
TCR Mut RLU/WT RLU: 0.42

binder: B8.2.4 TCR mutant β96T-D (TCR, V domains shown) V domain 1: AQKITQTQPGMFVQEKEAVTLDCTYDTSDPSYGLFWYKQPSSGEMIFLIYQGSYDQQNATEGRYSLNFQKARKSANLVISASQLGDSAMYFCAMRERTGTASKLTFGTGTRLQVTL V domain 2: DVKVTQSSRYLVKRTGEKVFLECVQDMDHENMFWYRQDPGLGLRLIYFSYDVKMKEKGDIPEGYSVSREKKERFSLILESASTNQTSMYLCASSQDVPPQHFGDGTRLSILE
display-unit: ratio
TCR Mut RLU/WT RLU: 0.28

binder: B8.2.4 TCR mutant β95Q-H (TCR, V domains shown) V domain 1: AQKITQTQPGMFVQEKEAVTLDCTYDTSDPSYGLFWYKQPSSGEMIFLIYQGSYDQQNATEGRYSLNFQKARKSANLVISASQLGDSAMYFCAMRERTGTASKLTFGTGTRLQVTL V domain 2: DVKVTQSSRYLVKRTGEKVFLECVQDMDHENMFWYRQDPGLGLRLIYFSYDVKMKEKGDIPEGYSVSREKKERFSLILESASTNQTSMYLCASSHTVPPQHFGDGTRLSILE
display-unit: ratio
TCR Mut RLU/WT RLU: 0.68

binder: B8.2.4 TCR mutant β96T-W (TCR, V domains shown) V domain 1: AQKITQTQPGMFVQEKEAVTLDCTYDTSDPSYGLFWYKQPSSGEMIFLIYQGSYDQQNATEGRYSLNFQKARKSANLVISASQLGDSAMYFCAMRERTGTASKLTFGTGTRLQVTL V domain 2: DVKVTQSSRYLVKRTGEKVFLECVQDMDHENMFWYRQDPGLGLRLIYFSYDVKMKEKGDIPEGYSVSREKKERFSLILESASTNQTSMYLCASSQWVPPQHFGDGTRLSILE
display-unit: ratio
TCR Mut RLU/WT RLU: 0.64

binder: B8.2.4 TCR mutant β98P-I (TCR, V domains shown) V domain 1: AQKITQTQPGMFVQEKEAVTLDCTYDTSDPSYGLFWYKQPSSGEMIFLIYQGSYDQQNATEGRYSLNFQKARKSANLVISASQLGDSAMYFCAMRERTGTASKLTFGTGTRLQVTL V domain 2: DVKVTQSSRYLVKRTGEKVFLECVQDMDHENMFWYRQDPGLGLRLIYFSYDVKMKEKGDIPEGYSVSREKKERFSLILESASTNQTSMYLCASSQTVIPQHFGDGTRLSILE
display-unit: ratio
TCR Mut RLU/WT RLU: 0.33

These data points were gathered from patent US20240123070A1.
